Numbers sourced from patent US4922021A.

- assay details: in vivo
- measurement context: mouse, ip
Here, each record is paired with measured LD50 data.
Lab book: enter the figure in mg/kg, no units written.

> print(dat)
                                   compound  parameter  recorded.result
1  Cc1cccc(C)c1NCC(C)N(C)C (stereo not drawn)       LD50              114
2    Cc1cccc(C)c1NCC(C)N (stereo not drawn)       LD50              135

Query compound follows.
In: In one line, give reported LD50 of the entry Cc1cccc(C)c1NC(C)CN.Cl.Cl (stereo not drawn) .
Out: 155
